Molecular target: T1, cynomolgus BTLA(ECD)-HIS (cynomolgus, UniProt A0A2K5W7M7 31-157)
T1 construct: extracellular domain; also called Cyno BTLA; not shown: HIS tag
T1 sequence (A0A2K5W7M7 entry or part of it): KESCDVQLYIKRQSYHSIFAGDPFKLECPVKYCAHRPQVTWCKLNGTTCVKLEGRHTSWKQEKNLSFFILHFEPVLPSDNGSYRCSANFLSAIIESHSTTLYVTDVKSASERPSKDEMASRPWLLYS
Experiment: ELISA, coated BTLA(ECD)-HIS, chemiluminescence (RLU)
Test readout: pEC50
Please report pEC50 as the negative decimal logarithm of the molar concentration, giving only the number.

Binder: anti-BTLA antibody 12-I8A (antibody, V domains shown, also called 12-IBA) VH: QVQLVESGGGVVQPGRSLRLSCAASGFTFSNYGMHWVRQAPGKGLEWVAVIWYNGSNKYYADSVKGRFTISRDNSKNTLYLQMNSLRAEDTAVYYCARDDVVRYFDWPLDYWGQGTLVTVSS VL: AIQMTQSPSSLSASVGDRVTITCRASQGIRNDLGWYQQKPGKAPKVLIYAASSLQSGVPSRFSGSGSGTDFTLTISSLQPEDFATYYCLQDYNYPWTFGQGTKVEIK
pEC50: 8.38
//
Binder: anti-BTLA antibody 13-F7A (antibody, V domains shown) VH: EVQLLESGGGLVQPGGSLRLSCAASGFTSSSYGMSWVRQAPGKGLEWVSGISGSGGGTYYADSVKGRFTISRDNSKNTLYLQMNSLRAEDTAVYYCAKGDYYGSGSYPLFDYWGQGTLVTVSS VL: AIQLTQSPSSLSASVGDRVTITCRASQDISSALAWYQQKPGKAPKLLISDASSLESGVPSRFSGSGSGTDFTLTISSLQPEDFATFYCQQFNNYPPTFGPGTKVDIK
pEC50: 9.00

[ask] Field request: pEC50 | item: anti-BTLA antibody 16-I20A (antibody, V domains shown, also called 16420A) VH: QVQLQESGPGLVKPSETLSLTCTVSGGSISYYYWSWIRQPPGTGLEWIGYIYYSGSTKYNPSLKRRVTISVDTSKNQFSLKLSSVTAADTAVYYCARIRGDSYGWDFDYWGQGTLVTVSS VL: EIVMTQSPATLSLSPGERATLSCRASQSISNNYLFWYQQKPGQAPRLLIYGASTRATGIPARFSGSGSGTDFTLTISSLQPEDFAVYYCQQDYNFPLTFGGGTKVEIK
[reply] 9.10

[ask] Field request: pEC50 | item: anti-BTLA antibody 16-H16A (antibody, V domains shown) VH: QLQLQESGPGLVKPSETLSLTCTVSGDSISSSGYYWGWIRQPPGKGLEWIGSIYYSGSTHYNPSLKSRVTISVDSSKSQFSLKLSSVTAADTAVYCCARHKVDSSGWPLDYWGQGTLVTVSS VL: EIVMTQSPATLSLSPGERATLSCRASQSISSSCLSWYQQKPGQAPRLLIYDTSTRATGIPARFSGSGSGTDFTLTISSLQPEDFAVYYCQQDYNLPLTFGGGTKVEIK
[reply] 8.72
